Target Under Test: Human autotaxin enzyme (Homo sapiens, UniProt Q13822)
Construct: purchased R&D System
Protocol Description: Evaluation of autotaxin inhibitor, Method C (Test Example 3): 18:0 Lyso PC, choline assay, Resorufin fluorescence
Type: biochemical
Condition Info: Assay Method C (Test Example 3), human autotaxin, 18:0 Lyso PC substrate; read-out: Inhibitory Activity (autotaxin enzyme inhibitory activity, IC50 class)
Description: (Method C) Evaluation of Autotaxin Inhibitor Solution B containing 100 mM Tris-HCl buffer (pH7.5), 150 mM NaCl, 5 mM MgCl2 and 0.05% Triton X-100 was prepared. […] The fluorescent dye Resorufin, which was produced by the reaction, was detected. The fluorescence was detected using ViewLux (PerkinElmer, Inc.) with an excitation wavelength of 531 nm and a fluorescence wavelength of 598 nm. […]
pIC50: −log10 of the molar value.
Outcome Measure: pIC50

{"Molecule": "CCCCCn1c(N[C@@H]2CCC[C@H]2C(=O)O)cc(=O)n2cc(-c3ccc(Cl)cc3)nc12", "Reported Result": "7.00 to 8.00"}
{"Molecule": "CCCCCn1c(-c2cnn(CCN3CCOCC3)c2)cc(=O)n2cc(-c3ccc(Cl)cc3)nc12", "Reported Result": "7.00 to 8.00"}
{"Molecule": "CCCCCn1c(N2CCC[C@H]2C(=O)N2CCNC(=O)C2)cc(=O)n2cc(-c3ccc(Cl)cc3)nc12", "Reported Result": "7.00 to 8.00"}
{"Molecule": "CCCCCn1c(-c2ccc(CCCO)cc2)cc(=O)n2cc(-c3ccc(Cl)cc3)nc12", "Reported Result": "6.00 to 7.00"}
{"Molecule": "CCCCCn1c(N2CCC[C@H]2CO)cc(=O)n2cc(-c3ccc(Cl)cc3)nc12", "Reported Result": "6.00 to 7.00"}
{"Molecule": "CCCCCn1c(N2CCC[C@H]2C(=O)NCCCCN(C)C)cc(=O)n2cc(-c3ccc(Cl)cc3)nc12", "Reported Result": "6.00 to 7.00"}
{"Molecule": "CCCCCn1c(N2CCC[C@H]2C(=O)NCCC(=O)O)cc(=O)n2cc(-c3ccc(Cl)cc3)nc12", "Reported Result": "> 8.00"}
{"Molecule": "C#CCNC(=O)c1ccc(-c2cc(=O)n3cc(-c4ccc(Cl)cc4)nc3n2CCCCC)cc1", "Reported Result": "7.00 to 8.00"}
{"Molecule": "CCCCCn1c(-c2ccc(C(=O)NCCC)cc2)cc(=O)n2cc(-c3ccc(Cl)cc3)nc12", "Reported Result": "7.00 to 8.00"}
{"Molecule": "CCCCCn1c(N2CCCC(CO)C2)cc(=O)n2cc(-c3ccc(Cl)cc3)nc12 (stereo not drawn)", "Reported Result": "6.00 to 7.00"}
{"Molecule": "CCCCCn1c(-c2ccc(C(=O)N3CCOCC3)cc2)cc(=O)n2cc(-c3ccc(Cl)cc3)nc12", "Reported Result": "7.00 to 8.00"}
{"Molecule": "CCCCCn1c(-c2cnc(C(=O)OC)nc2)cc(=O)n2cc(-c3ccc(Cl)cc3)nc12", "Reported Result": "7.00 to 8.00"}
{"Molecule": "CCCCCn1c(-c2ccc(C(=O)NCc3ncc[nH]3)cc2)cc(=O)n2cc(-c3ccc(Cl)cc3)nc12", "Reported Result": "7.00 to 8.00"}
{"Molecule": "CCCCCn1c(N2CCC(NC(C)=O)CC2)cc(=O)n2cc(-c3ccc(Cl)cc3)nc12", "Reported Result": "6.00 to 7.00"}
{"Molecule": "CCCCCn1c(O[C@H]2CCN(CCC(=O)OC(C)(C)C)C2)cc(=O)n2cc(-c3ccc(Cl)cc3)nc12", "Reported Result": "7.00 to 8.00"}

* * *

Target Under Test: Human autotaxin enzyme (Homo sapiens)
Construct: purchased R&D System
Protocol Description: Evaluation of autotaxin inhibitor, Method B (Test Example 2): TG-mTMP fluorescence
Assay type: biochemical
Condition Info: Assay Method B (Test Example 2), human autotaxin; read-out: Inhibitory Activity (autotaxin enzyme inhibitory activity, IC50 class)
Outcome Measure: IC50

{"Compound": "CCCCCn1c(OC(CC(C)C)CC(C)C)cc(=O)n2cc(-c3ccc(Cl)cc3)nc12 [Compound 262]", "Reported Result": "100 to 1000 nM"}
{"Compound": "CCCCCn1c(C)cc(=O)n2c(C)c(-c3ccc(Br)cc3)nc12 [Compound 169]", "Reported Result": "10 to 100 nM"}
{"Compound": "CCCCCn1c(N2CCC[C@@H]2C)cc(=O)n2cc(-c3ccc(Cl)cc3)nc12 [Compound 258]", "Reported Result": "10 to 100 nM"}
{"Compound": "CCCCCn1c(N2CCN(CC(=O)N(C)C)CC2)cc(=O)n2cc(-c3ccc(Cl)cc3)nc12 [Compound 240]", "Reported Result": "< 10 nM"}
{"Compound": "Cc1cc(=O)n2cc(-c3ccc(Cl)cc3)nc2n1CCCCF [Compound 94]", "Reported Result": "10 to 100 nM"}
{"Compound": "CCCCCn1c(C)cc(=O)n2cc(-c3ccc4c(c3)CCO4)nc12 [Compound 149]", "Reported Result": "100 to 1000 nM"}
{"Compound": "CCCCCn1c(OC2CCCC2)cc(=O)n2cc(-c3ccc(Cl)cc3)nc12 [Compound 260]", "Reported Result": "10 to 100 nM"}
{"Compound": "CCCCCn1c(C)cc(=O)n2cc(-c3ccc4c(c3)OCCCO4)nc12 [Compound 160]", "Reported Result": "100 to 1000 nM"}

* * *

Target Under Test: Human autotaxin enzyme (Homo sapiens, UniProt Q13822)
Construct: purchased R&D System
Protocol Description: Evaluation of autotaxin inhibitor, Method C (Test Example 3): 18:0 Lyso PC, choline assay, Resorufin fluorescence
Assay type: biochemical
Condition Info: Assay Method C (Test Example 3), human autotaxin, 18:0 Lyso PC substrate; read-out: Inhibitory Activity (autotaxin enzyme inhibitory activity, IC50 class)

{"Query Smiles": "CCCCCn1c(OCC2(C)COC2)cc(=O)n2cc(-c3ccc(Cl)cc3)nc12", "IC50": "100 to 1000 nM"}
{"Query Smiles": "CCCCCn1c(N2CCC[C@H]2C(=O)NCCN2CCCCC2)cc(=O)n2cc(-c3ccc(Cl)cc3)nc12", "IC50": "100 to 1000 nM"}
{"Query Smiles": "CCn1c(N2C[C@H](O)C[C@H]2C(=O)N[C@@H](C)C(=O)O)cc(=O)n2cc(-c3ccc(Cl)cc3)nc12", "IC50": "10 to 100 nM"}
{"Query Smiles": "CCCCCn1c(N2CCC3(CNC3)C2)cc(=O)n2cc(-c3ccc(Cl)cc3)nc12", "IC50": "100 to 1000 nM"}
{"Query Smiles": "CCn1c(N2CCC[C@H]2C(=O)N[C@H](C(=O)O)C(C)(C)C)cc(=O)n2cc(-c3ccc(Cl)cc3)nc12", "IC50": "10 to 100 nM"}
{"Query Smiles": "CCn1c(N2C[C@H](O)C[C@H]2C(=O)NCC(=O)O)cc(=O)n2cc(-c3ccc(Cl)cc3)nc12", "IC50": "> 1000 nM"}
{"Query Smiles": "CCCCCn1c(-c2ccc(C(=O)NCCN3CCSCC3)cc2)cc(=O)n2cc(-c3ccc(Cl)cc3)nc12", "IC50": "10 to 100 nM"}

* * *

Each entry below carries its recorded pIC50.
Target Under Test: Human autotaxin enzyme (Homo sapiens)
Construct: purchased R&D System
Protocol Description: Evaluation of autotaxin inhibitor, Method B (Test Example 2): TG-mTMP fluorescence
Assay type: biochemical
Condition Info: Assay Method B (Test Example 2), human autotaxin; read-out: Inhibitory Activity (autotaxin enzyme inhibitory activity, IC50 class)
pIC50: −log10 of the molar value.
Outcome Measure: pIC50

{"Query Smiles": "CCCCCn1c(C)c(NC(C)=O)c(=O)n2cc(-c3ccc(Cl)cc3)nc12", "Outcome Measure": "pIC50", "Reported Result": "7.00 to 8.00"}
{"Query Smiles": "CCCCCn1c(C)cc(=O)n2cc(-c3cc4ccccc4o3)nc12", "Outcome Measure": "pIC50", "Reported Result": "6.00 to 7.00"}
{"Query Smiles": "Cc1cc(=O)n2cc(-c3ccc(Cl)cc3)nc2n1Cc1ccc(C(F)(F)F)cc1", "Outcome Measure": "pIC50", "Reported Result": "6.00 to 7.00"}
{"Query Smiles": "CCCCCn1c(C)cc(=O)n2c(CN(C)C)c(-c3ccc(Cl)cc3)nc12", "Outcome Measure": "pIC50", "Reported Result": "< 6.00"}
{"Query Smiles": "CCCCCn1c(NCc2ccccn2)cc(=O)n2cc(-c3ccc(Cl)cc3)nc12", "Outcome Measure": "pIC50", "Reported Result": "7.00 to 8.00"}
{"Query Smiles": "CCCCCn1c(Oc2ccc(C(=O)CC)cc2)cc(=O)n2cc(-c3ccc(Cl)cc3)nc12", "Outcome Measure": "pIC50", "Reported Result": "6.00 to 7.00"}
{"Query Smiles": "CCCCCn1c(-c2ccc(O)cc2)cc(=O)n2cc(-c3ccc(Cl)cc3)nc12", "Outcome Measure": "pIC50", "Reported Result": "> 8.00"}
